Overview of recorded selective drug sensitivity score for various compounds
# Tested on: KOPN-8;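 also: ALL cell lines in 384-well plates, five doses spanning 10,000-fold, each plate scaled between vehicle and 100 µmol/L benzalkonium chloride controls, sDSS an adapted area-under-curve metric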
# test_details: selective drug sensitivity score (sDSS, relative to normal bone marrow) (sDSS (score)); higher = more potent and effective on the cell line relative to normal bone marrow cells
# test_conditions: 72 h
readout_label: selective drug sensitivity score

[
  {
    "compound": "OC[C@H]1O[C@@H](n2cnc3c2N=CNC[C@H]3O)C[C@@H]1O [Pentostatin] (top concentration 10000 nM)",
    "recorded_value": -0.14
  },
  {
    "compound": "COc1ccc(CCc2nc3cc(-c4c(C)noc4C)ccc3n2C[C@H](C)N2CCOCC2)cc1Cl [SGC-CBP30] (top concentration 25000 nM)",
    "recorded_value": 6.18
  },
  {
    "compound": "CN1CCN(c2cc(C(=O)Nc3ccc4c(c3)-c3c(c(C(N)=O)nn3-c3ccc(F)cc3)CC4)c(Cl)cn2)CC1 [PHA-408] (top concentration 10000 nM)",
    "recorded_value": 3.88
  },
  {
    "compound": "C[C@@H]1CN(Cc2ccc(F)cc2)[C@@H](C)CN1C(=O)c1cc2c(C(=O)C(=O)N(C)C)cn(C)c2cc1Cl [Talmapimod] (top concentration 10000 nM)",
    "recorded_value": 0
  },
  {
    "compound": "NC(=O)Nc1cc(-c2cccc(F)c2)sc1C(=O)N[C@H]1CCCNC1 [AZD7762] (top concentration 1000 nM)",
    "recorded_value": 3.4
  }
]
